Sourced from PubChem BioAssay AID504463

- Tested on: S. cerevisiae s288c autofluorescence, flow cytometry 520 nm, 3 h
- Procedure Details: yeast autofluorescence interference at GFP wavelength, dose response, artefact control for yeast TOR pathway modulator project, flow cytometry, strain s288c, KU SAR set 2, multiplex (AID 504463)
- Study Conditions: at 33.3 µM; stronger effect = higher value
Endpoint: fluorescence change (kMESF span)

>>> print(df.to_string())
                           smiles_structure  test_value
0  CNc1nc(N)c([N+](=O)[O-])c(Nc2ccccc2Br)n1        0.07

P: Cc1cc(Nc2cc(Nc3ccccc3)nc(NCc3ccccc3)n2)n[nH]1
Q: O=[N+]([O-])c1c(NC2CCCCC2)nc(NCc2ccccc2)nc1N1CCOCC1
[Q] Which has the higher fluorescence change (kMESF span), P or Q ? Respond using the label that marks the chosen record.
[A] P
